src = patent US20100196385A1

# targetDesc: T1, full length human DLL4 (human, UniProt Q9NR61 27-685)
# T1 construct: whole, on cells; also called native DLL4 expressed in HEK293 cells
# T1 sequence (Q9NR61 27-685): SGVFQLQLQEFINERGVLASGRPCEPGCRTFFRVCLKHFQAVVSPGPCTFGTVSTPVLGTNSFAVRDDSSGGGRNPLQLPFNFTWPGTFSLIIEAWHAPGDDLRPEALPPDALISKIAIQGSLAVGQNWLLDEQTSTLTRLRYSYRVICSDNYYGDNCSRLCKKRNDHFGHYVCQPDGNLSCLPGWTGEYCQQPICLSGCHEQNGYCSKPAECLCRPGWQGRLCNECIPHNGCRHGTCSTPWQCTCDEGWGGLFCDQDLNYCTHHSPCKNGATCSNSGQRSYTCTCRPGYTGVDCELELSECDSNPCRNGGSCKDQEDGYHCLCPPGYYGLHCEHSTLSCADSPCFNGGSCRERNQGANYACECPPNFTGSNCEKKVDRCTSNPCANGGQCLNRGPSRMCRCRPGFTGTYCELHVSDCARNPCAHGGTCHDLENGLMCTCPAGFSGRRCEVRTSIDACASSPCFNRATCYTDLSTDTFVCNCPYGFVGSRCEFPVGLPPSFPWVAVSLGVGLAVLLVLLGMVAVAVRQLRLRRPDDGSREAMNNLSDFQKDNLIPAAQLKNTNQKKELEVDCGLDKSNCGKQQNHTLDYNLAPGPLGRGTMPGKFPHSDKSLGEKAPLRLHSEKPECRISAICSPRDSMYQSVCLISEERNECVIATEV
# testProtocol: FMAT competition, purified antibody vs Alexa-647 human Notch1/Fc, 293T cells with human DLL4

{"binder": "12A1 (antibody, IgG4, V domains shown, Fully human; also used where no isotype is printed) VH: QVQLVQSGAEVKRPGASVKVSCKASGYTFTSYGITWVRQAPGQGLEYMGWISTYNGNTDYAQKFQGRVTMTADISTSTAYMELRSLRSDDTAVYYCARERGSYFDYWGQGTLVTVSS VL: SYELTQPPSVSVSPGQTARITCSGDTLPKKYAYWYQQKSGQAPVLVIYEDIKRPSGIPERFSGSSSGTMATLTISGAQVEDEADYYCFSTDSGGNHKFGGGTKLTVL", "% inhibition at 0.070 nM [%]": -18}
{"binder": "3A7 (antibody, IgG4, V domains shown, Fully human; also used where no isotype is printed) VH: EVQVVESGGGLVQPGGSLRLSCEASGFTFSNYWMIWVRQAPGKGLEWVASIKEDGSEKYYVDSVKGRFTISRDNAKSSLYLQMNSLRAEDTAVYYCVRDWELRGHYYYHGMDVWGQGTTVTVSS VL: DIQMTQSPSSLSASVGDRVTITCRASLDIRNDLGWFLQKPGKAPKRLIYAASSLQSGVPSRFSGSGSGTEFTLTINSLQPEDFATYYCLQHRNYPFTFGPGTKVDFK", "% inhibition at 0.070 nM [%]": 7}
{"binder": "1E4 (antibody, IgG2, V domains shown, Fully human; also used where no isotype is printed) VH: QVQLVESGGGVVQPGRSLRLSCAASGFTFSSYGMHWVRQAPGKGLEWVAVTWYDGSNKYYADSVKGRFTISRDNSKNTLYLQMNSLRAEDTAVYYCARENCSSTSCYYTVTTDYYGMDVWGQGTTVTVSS VL: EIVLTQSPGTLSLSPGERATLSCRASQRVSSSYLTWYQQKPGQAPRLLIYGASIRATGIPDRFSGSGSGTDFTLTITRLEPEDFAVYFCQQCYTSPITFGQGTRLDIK", "% inhibition at 0.070 nM [%]": 24}
{"binder": "4B3 (antibody, IgG4, V domains shown, Fully human; also used where no isotype is printed) VH: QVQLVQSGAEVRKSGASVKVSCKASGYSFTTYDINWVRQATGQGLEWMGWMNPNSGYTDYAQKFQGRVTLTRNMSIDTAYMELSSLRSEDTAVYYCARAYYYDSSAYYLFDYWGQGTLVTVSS VL: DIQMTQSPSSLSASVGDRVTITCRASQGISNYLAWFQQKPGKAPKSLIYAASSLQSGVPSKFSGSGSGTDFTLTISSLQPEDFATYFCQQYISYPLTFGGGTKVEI", "% inhibition at 0.070 nM [%]": 5}
{"binder": "2H10 (antibody, IgG4, V domains shown, Fully human; used for IgG4 rows and where no isotype is printed; also called 2H10 IgG4) VH: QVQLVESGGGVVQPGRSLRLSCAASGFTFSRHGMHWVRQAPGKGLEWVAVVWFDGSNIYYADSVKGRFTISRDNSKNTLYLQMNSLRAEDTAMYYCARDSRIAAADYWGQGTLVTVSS VL: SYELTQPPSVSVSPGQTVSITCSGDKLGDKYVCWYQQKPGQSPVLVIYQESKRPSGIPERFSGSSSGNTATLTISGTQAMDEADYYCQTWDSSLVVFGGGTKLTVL", "% inhibition at 0.070 nM [%]": -3}
{"binder": "1D4 (antibody, IgG4, V domains shown, Fully human XenoMouse antibody; also used where no isotype is printed) VH: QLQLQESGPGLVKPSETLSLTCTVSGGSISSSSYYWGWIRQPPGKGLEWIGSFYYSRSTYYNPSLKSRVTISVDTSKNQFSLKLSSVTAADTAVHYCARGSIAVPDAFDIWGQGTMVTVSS VL: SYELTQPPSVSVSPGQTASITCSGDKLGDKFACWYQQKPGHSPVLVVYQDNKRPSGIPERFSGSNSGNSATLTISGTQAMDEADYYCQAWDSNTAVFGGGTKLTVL", "% inhibition at 0.070 nM [%]": -2}
